meta.source: the supplement of paper PMC7877785

experiment: self-splicing fitness, log relative to wild type (ln ratio); higher = more splicing; Tetrahymena group I intron in knt gene, E. coli kanamycin selection, DiMSum; sequences stand for … in CUCUCU…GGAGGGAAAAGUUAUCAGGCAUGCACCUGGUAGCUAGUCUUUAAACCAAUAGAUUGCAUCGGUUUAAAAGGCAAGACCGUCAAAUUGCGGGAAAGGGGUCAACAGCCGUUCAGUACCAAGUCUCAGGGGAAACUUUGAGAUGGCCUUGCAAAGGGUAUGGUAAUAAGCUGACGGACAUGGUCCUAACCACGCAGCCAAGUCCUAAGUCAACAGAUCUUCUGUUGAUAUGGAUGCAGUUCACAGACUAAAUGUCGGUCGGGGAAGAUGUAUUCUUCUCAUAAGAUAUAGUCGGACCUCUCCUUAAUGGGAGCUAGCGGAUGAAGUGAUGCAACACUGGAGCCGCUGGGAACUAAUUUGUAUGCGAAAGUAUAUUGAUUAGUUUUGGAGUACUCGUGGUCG; conditions: 37 °C;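 also: selection with 25 µg/mL kanamycin versus none on LB agar overnight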
Is self-splicing fitness (ln) at least -2? Then yes (1). If not, no (0).

Inquiry: Hi team, for CGCUAGCAAUAUUACGCCAU , is the recorded self-splicing fitness (ln) at or above -2?
Reply text: yes (1)

Inquiry: Hi team, for CGCGAGCAAUAUUACGGACG , is the recorded self-splicing fitness (ln) at or above -2?
Reply text: yes (1)

Inquiry: Hi team, for CUCAAGCAAUAUUACGACUG , is the recorded self-splicing fitness (ln) at or above -2?
Reply text: yes (1)

Inquiry: Hi team, for GCGCAGCAAUAUUACGCAAU , is the recorded self-splicing fitness (ln) at or above -2?
Reply text: yes (1)

Inquiry: Hi team, for CAAGAGCAAUAUUACGCUAC , is the recorded self-splicing fitness (ln) at or above -2?
Reply text: yes (1)

Inquiry: Hi team, for CGAAAGCAAUAUUACGAAAU , is the recorded self-splicing fitness (ln) at or above -2?
Reply text: no (0)

Inquiry: Hi team, for UGACAGCAAUAUUACGAACU , is the recorded self-splicing fitness (ln) at or above -2?
Reply text: yes (1)

Inquiry: Hi team, for GGCUAGCAAUAUUACGACAU , is the recorded self-splicing fitness (ln) at or above -2?
Reply text: yes (1)

Inquiry: Hi team, for CGUAAGCAAUAUUACGCUCG , is the recorded self-splicing fitness (ln) at or above -2?
Reply text: yes (1)

Inquiry: Hi team, for GAUAAGCAAUAUUACGGUAU , is the recorded self-splicing fitness (ln) at or above -2?
Reply text: yes (1)

Inquiry: Hi team, for GGCUAGCAAUAUUACGUACU , is the recorded self-splicing fitness (ln) at or above -2?
Reply text: yes (1)

Inquiry: Hi team, for CGCAAGCAAUAUUACGCAGA , is the recorded self-splicing fitness (ln) at or above -2?
Reply text: yes (1)

Inquiry: Hi team, for CUGGAGCAAUAUUACGCUGU , is the recorded self-splicing fitness (ln) at or above -2?
Reply text: no (0)

Inquiry: Hi team, for AAUAAGCAAUAUUACGGUUC , is the recorded self-splicing fitness (ln) at or above -2?
Reply text: yes (1)

Inquiry: Hi team, for CUCAAGCAAUAUUACGGCCU , is the recorded self-splicing fitness (ln) at or above -2?
Reply text: no (0)

Inquiry: Hi team, for GUUGAGCAAUAUUACGCGGG , is the recorded self-splicing fitness (ln) at or above -2?
Reply text: no (0)

Inquiry: Hi team, for ACAUAGCAAUAUUACGUCGU , is the recorded self-splicing fitness (ln) at or above -2?
Reply text: no (0)

Inquiry: Hi team, for AUGUAGCAAUAUUACGAUAU , is the recorded self-splicing fitness (ln) at or above -2?
Reply text: yes (1)

Inquiry: Hi team, for UCCGAGCAAUAUUACGGUAA , is the recorded self-splicing fitness (ln) at or above -2?
Reply text: yes (1)

Inquiry: Hi team, for AUACAGCAAUAUUACGGCAG , is the recorded self-splicing fitness (ln) at or above -2?
Reply text: yes (1)

Inquiry: Hi team, for AGCUAGCAAUAUUACGACAG , is the recorded self-splicing fitness (ln) at or above -2?
Reply text: yes (1)

Inquiry: Hi team, for UGGUAGCAAUAUUACGAUUU , is the recorded self-splicing fitness (ln) at or above -2?
Reply text: yes (1)

Inquiry: Hi team, for AGACAGCAAUAUUACGCAGG , is the recorded self-splicing fitness (ln) at or above -2?
Reply text: yes (1)

Inquiry: Hi team, for UCAUAGCAAUAUUACGUACG , is the recorded self-splicing fitness (ln) at or above -2?
Reply text: yes (1)

Inquiry: Hi team, for UGCCAGCAAUAUUACGGGGC , is the recorded self-splicing fitness (ln) at or above -2?
Reply text: yes (1)

Inquiry: Hi team, for AAUCAGCAAUAUUACGUGCU , is the recorded self-splicing fitness (ln) at or above -2?
Reply text: no (0)

Inquiry: Hi team, for CCGGAGCAAUAUUACGCCUG , is the recorded self-splicing fitness (ln) at or above -2?
Reply text: yes (1)

Inquiry: Hi team, for UAAAAGCAAUAUUACGACUG , is the recorded self-splicing fitness (ln) at or above -2?
Reply text: yes (1)

Inquiry: Hi team, for UACCAGCAAUAUUACGACUC , is the recorded self-splicing fitness (ln) at or above -2?
Reply text: yes (1)

Inquiry: Hi team, for UAUCAGCAAUAUUACGAUUA , is the recorded self-splicing fitness (ln) at or above -2?
Reply text: yes (1)

Inquiry: Hi team, for ACCGAGCAAUAUUACGGUAC , is the recorded self-splicing fitness (ln) at or above -2?
Reply text: no (0)

Inquiry: Hi team, for UAGGAGCAAUAUUACGCGGG , is the recorded self-splicing fitness (ln) at or above -2?
Reply text: yes (1)
